# Test system: Klebsiella pneumoniae
# PROTOCOL_DETAILS: Antibacterial activity against Klebsiella pneumoniae CECT-997 assessed as inhibition of growth at 50 uM after 18 hrs
# Format: functional, organism-based
Activity calls are given as the source filed them. The rule behind the calls is not given here.
Outcome codes: true = active, false = inactive

O=C(Nc1ccc([N+](=O)[O-])cc1Cl)c1cc(Cl)ccc1OCCN1CCCCC1
false
NCCCCOc1ccc(Cl)cc1C(=O)Nc1ccc([N+](=O)[O-])cc1Cl
true
O=C(Nc1ccc([N+](=O)[O-])cc1Cl)c1cc(Cl)ccc1O [NICLOSAMIDE]
false
CN1CCN(CCOc2ccc(Cl)cc2C(=O)Nc2ccc([N+](=O)[O-])cc2Cl)CC1
false
O=C(Nc1ccc([N+](=O)[O-])cc1Cl)c1cc(Cl)ccc1OC1CCNCC1
false
